- Tested on: Escherichia coli JUHL
- testName: Assay B: in vitro antibacterial activity, broth microdilution MIC (NCCLS)
- Type: cell-based
- details: Table 2, Assay B, cation-adjusted Mueller Hinton broth, 35° C., 16 to 20 hr; code D = Escherichia coli JUHL; unit assumed
- Method: Assay B. Determination of Biological Activity In Vitro Assay of Antibacterial Activity Representative compounds of the invention were assayed in vitro for antibacterial activity. […] Minimum Inhibitory Concentrations (MICs) were determined as the lowest drug concentration completely inhibiting growth. […]
Classify: True when Antibacterial Activity (MIC's), D is strictly less than 0.5 µg/mL; False when Antibacterial Activity (MIC's), D is not.

Solved entries:
- compound: "COc1c(-c2cc3c(s2)C(N)CCC3)ccc2c(=O)c(C(=O)O)cn(C3CC3)c12.Cl (stereo not shown) [Example 201]"
  category: "True"
- compound: "COc1c(-c2cc3c(s2)CCCC3NC2CCN(C)CC2)ccc2c(=O)c(C(=O)O)cn(C3CC3)c12.Cl.Cl (stereo not shown) [Example 133]"
  category: "False"
- compound: "CON=C1CCc2cc(-c3ccc4c(=O)c(C(=O)O)cn(C5CC5)c4c3OC)sc2C1 [Example 66]"
  category: "False"
- compound: "COc1c(-c2cc3c(s2)CC(C)(C)CC3)ccc2c(=O)c(C(=O)O)cn(C3CC3)c12 [Example 236]"
  category: "False"

Inquiry: Consider the compound CON=C1CCCc2sc(-c3ccc4c(=O)c(C(=O)O)cn(C5CC5)c4c3OC)cc21 [Example 64] . Is its Antibacterial Activity (MIC's), D strictly less than 0.5 µg/mL?
Reply text: False

Inquiry: Now consider Cl.NC1CCCc2sc(-c3c(F)cc4c(=O)c(C(=O)O)cn(C5CC5)c4c3F)cc21 (stereo not shown) [Example 308] and answer again.
Reply text: True

Inquiry: Another compound: COc1c(-c2cc3c(s2)CC(=O)CC3)ccc2c(=O)c(C(=O)O)cn(C3CC3)c12 [Example 59]
Reply text: False

Inquiry: Request: COc1c(-c2cc3c(s2)C(O)CNC3)ccc2c(=O)c(C(=O)O)cn(C3CC3)c12 (stereo not shown) [Example 202]
Reply text: True

Inquiry: Consider next the compound CNC1CCCc2cc(-c3c(F)cc4c(=O)c(C(=O)O)cn(C5CC5)c4c3OC)sc21.Cl (stereo not shown) [Example 246] in the same way.
Reply text: True

Inquiry: What do you have for COc1c(-c2cc3c(s2)C(N)C(F)CC3)ccc2c(=O)c(C(=O)O)cn(C3CC3)c12.Cl (stereo not shown) [Example 237] ?
Reply text: True

Inquiry: What do you have for Cc1c(-c2cc3c(s2)CCCC3O)c(F)cc2c(=O)c(C(=O)O)cn(C3CC3)c12 (stereo not shown) [Example 316] ?
Reply text: True

Inquiry: Please give the result for COc1c(-c2cc3c(s2)CCCC3n2cccc2)ccc2c(=O)c(C(=O)O)cn(C3CC3)c12 (stereo not shown) [Example 89] too.
Reply text: False
